Examples of binders with documented Kd follow.
# system-tested: human insulin receptor (HIR) (human, UniProt P06213 28-1382, limits assumed)
# protocol: 125I-insulin competition, solubilised HIR

- binder: "LDQEWAWVQCAVYGRGCPSESFYDWFERQL [S502]"
  Kd: "3 nM"
- binder: "SLEEEWAQIEEVWGRPSESFYDWFERQLG [S570]"
  Kd: "0.73 nM"
- binder: "S456 (not fully specified; N-terminal Ald) peptide 1: XGSLDESFYDWFERQLGKK peptide 2: XKEWLDQEWAWVQCEVYGRGCPSEE"
  Kd: "2.4 nM"
- binder: "SIEEEWAQIKCDVWGRGCPSY [S593]"
  Kd: "0.022 nM"
